- Measurement Target: Substance-K receptor (Oryctolagus cuniculus) (UniProt P79218)
- Sequence (P79218 whole entry): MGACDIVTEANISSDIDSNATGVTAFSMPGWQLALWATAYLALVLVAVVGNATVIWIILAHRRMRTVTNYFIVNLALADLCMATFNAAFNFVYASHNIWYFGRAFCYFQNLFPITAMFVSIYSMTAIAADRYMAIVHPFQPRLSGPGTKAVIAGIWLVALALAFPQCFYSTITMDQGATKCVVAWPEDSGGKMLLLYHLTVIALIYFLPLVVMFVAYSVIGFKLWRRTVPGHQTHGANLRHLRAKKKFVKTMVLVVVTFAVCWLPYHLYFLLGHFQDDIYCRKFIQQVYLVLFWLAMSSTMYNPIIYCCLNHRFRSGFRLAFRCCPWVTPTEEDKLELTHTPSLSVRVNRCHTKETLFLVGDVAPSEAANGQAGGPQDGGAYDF
- Assay Procedure: Antagonist activity at NK2 receptor in rabbit pulmonary artery assessed as effect on neurokinin A-induced mechanical activity
- Assay type: functional
- Assay Setup: filed as antagonist
Observation Type: pKb

>  <Smiles Data>
N[C@@H]1CC(=O)N[C@@H](Cc2c[nH]c3ccccc23)C(=O)N[C@@H](Cc2ccccc2)C(=O)N[C@H](Cc2ccccc2)CNC1=O

>  <pKb>
7.9

$$$$
>  <Smiles Data>
O=C1C[C@@H](N2CCOCC2)C(=O)NC[C@@H](Cc2ccccc2)NC(=O)[C@H](Cc2ccccc2)NC(=O)[C@H](Cc2c[nH]c3ccccc23)N1

>  <pKb>
8.9

$$$$
>  <Smiles Data>
O=C1C[C@@H](N2CCCCC2)C(=O)NC[C@@H](Cc2ccccc2)NC(=O)[C@H](Cc2ccccc2)NC(=O)[C@H](Cc2c[nH]c3ccccc23)N1

>  <pKb>
8.2

$$$$
>  <Smiles Data>
O=C1C[C@H](N2CCOCC2)C(=O)NC[C@@H](Cc2ccccc2)NC(=O)[C@H](Cc2ccccc2)NC(=O)[C@H](Cc2c[nH]c3ccccc23)N1

>  <pKb>
8.5

$$$$
>  <Smiles Data>
N[C@@H]1CC(=O)N[C@@H](Cc2c[nH]c3ccccc23)C(=O)N[C@@H](Cc2ccccc2)C(=O)N[C@H](Cc2ccc(Cl)c(Cl)c2)CNC1=O

>  <pKb>
8.1

$$$$
>  <Smiles Data>
O=C1C[C@@H](NC2CCOCC2)C(=O)NC[C@@H](Cc2ccccc2)NC(=O)[C@H](Cc2ccccc2)NC(=O)[C@H](Cc2c[nH]c3ccccc23)N1

>  <pKb>
9.2

$$$$
>  <Smiles Data>
N[C@H]1CC(=O)NC[C@@H](Cc2ccccc2)NC(=O)[C@H](Cc2ccccc2)NC(=O)[C@H](Cc2c[nH]c3ccccc23)NC1=O

>  <pKb>
7.7

$$$$
>  <Smiles Data>
N[C@@H]1CC(=O)NC[C@@H](Cc2ccccc2)NC(=O)[C@H](Cc2ccccc2)NC(=O)[C@H](Cc2c[nH]c3ccccc23)NC1=O

>  <pKb>
7.2

$$$$

---

- Measurement Target: UniProtKB P21452
- Sequence (P21452 whole entry): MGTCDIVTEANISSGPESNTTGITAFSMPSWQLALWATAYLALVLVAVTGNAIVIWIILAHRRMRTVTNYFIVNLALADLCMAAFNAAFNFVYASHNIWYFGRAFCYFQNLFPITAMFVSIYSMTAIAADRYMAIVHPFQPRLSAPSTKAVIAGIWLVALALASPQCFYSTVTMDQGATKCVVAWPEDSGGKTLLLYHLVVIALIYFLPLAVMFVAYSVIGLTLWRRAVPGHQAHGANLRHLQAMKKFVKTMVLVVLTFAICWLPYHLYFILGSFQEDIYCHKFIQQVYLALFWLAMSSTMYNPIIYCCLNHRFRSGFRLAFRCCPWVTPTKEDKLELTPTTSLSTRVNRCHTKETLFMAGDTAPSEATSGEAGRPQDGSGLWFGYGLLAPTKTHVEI
- Assay Procedure: Displacement of [125I]neurokinin A from human NK2 receptor expressed in CHOK1 cells
- Format: cell-based, CHO-K1
Entries and their Ki values follow.

>  <Smiles Data>
O=C1C[C@@H](N2CCCCC2)C(=O)NC[C@@H](Cc2ccccc2)NC(=O)[C@H](Cc2ccccc2)NC(=O)[C@H](Cc2c[nH]c3ccccc23)N1

>  <Measurement Target>
UniProtKB P21452

>  <Measurement>
1.58 nM (antagonist)

$$$$

Result for CS(=O)(=O)N1CCC(N[C@@H]2CC(=O)N[C@@H](Cc3c[nH]c4ccccc34)C(=O)N[C@@H](Cc3ccccc3)C(=O)N[C@H](Cc3ccccc3)CNC2=O)CC1 , tested on UniProtKB P21452, Ki: 0.0631 nM (antagonist)

Result for O=C1C[C@@H](NC(=O)CN2CCC(O)CC2)C(=O)NC[C@@H](Cc2ccccc2)NC(=O)[C@H](Cc2ccccc2)NC(=O)[C@H](Cc2c[nH]c3ccccc23)N1 , tested on UniProtKB P21452, Ki: 0.126 nM (antagonist)

---

- Measurement Target: Neuromedin-K receptor (Cavia porcellus) (UniProt P30098)
- Sequence (P30098 whole entry): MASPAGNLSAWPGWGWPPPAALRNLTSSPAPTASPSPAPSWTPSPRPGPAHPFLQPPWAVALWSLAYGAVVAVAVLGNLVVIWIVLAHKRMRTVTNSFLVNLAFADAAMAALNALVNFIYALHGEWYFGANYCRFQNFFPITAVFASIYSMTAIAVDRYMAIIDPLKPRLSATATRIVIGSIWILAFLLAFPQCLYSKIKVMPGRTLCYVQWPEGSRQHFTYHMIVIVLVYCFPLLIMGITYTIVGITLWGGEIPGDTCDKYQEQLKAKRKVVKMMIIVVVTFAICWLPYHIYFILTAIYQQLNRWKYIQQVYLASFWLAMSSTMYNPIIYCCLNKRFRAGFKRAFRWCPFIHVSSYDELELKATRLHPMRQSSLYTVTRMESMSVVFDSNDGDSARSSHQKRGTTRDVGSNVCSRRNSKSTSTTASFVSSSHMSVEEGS
- Assay Procedure: Antagonist activity at NK3 receptor in guinea pig ileum assessed as effect on senktide-induced mechanical activity
- Format: functional, tissue-based
- Assay Setup: filed as antagonist
Observation Type: pKb

>  <Smiles Data>
O=C1C[C@@H](NC2CCOCC2)C(=O)NC[C@@H](Cc2ccccc2)NC(=O)[C@H](Cc2ccccc2)NC(=O)[C@H](Cc2c[nH]c3ccccc23)N1

>  <Measurement>
6.4

$$$$
>  <Smiles Data>
O=C1C[C@@H](N2CCOCC2)C(=O)NC[C@@H](Cc2ccccc2)NC(=O)[C@H](Cc2ccccc2)NC(=O)[C@H](Cc2c[nH]c3ccccc23)N1

>  <Measurement>
6.1

$$$$
>  <Smiles Data>
NS(=O)(=O)N1CCN(CC(=O)N[C@@H]2CC(=O)N[C@@H](Cc3c[nH]c4ccccc34)C(=O)N[C@@H](Cc3ccccc3)C(=O)N[C@H](Cc3ccccc3)CNC2=O)CC1

>  <Measurement>
5.9

$$$$
>  <Smiles Data>
O=C1C[C@@H](NC(=O)CN2CCC(N3CCOCC3)CC2)C(=O)NC[C@@H](Cc2ccccc2)NC(=O)[C@H](Cc2ccccc2)NC(=O)[C@H](Cc2c[nH]c3ccccc23)N1

>  <Measurement>
6.4

$$$$
>  <Smiles Data>
O=C1C[C@@H](NC(=O)CN2CCC(N3CCCCC3)CC2)C(=O)NC[C@@H](Cc2ccccc2)NC(=O)[C@H](Cc2ccccc2)NC(=O)[C@H](Cc2c[nH]c3ccccc23)N1

>  <Measurement>
5.8

$$$$
